- STUDY_TARGET: T-type calcium channel (Homo sapiens, UniProt O43497)
- PROCEDURE_TEXT: T-type channel blocking, FLIPR data (Table 6)
- EXPERIMENTAL_CONTEXT: CAv3.1
ASSAY_ENDPOINT: IC50 (µM)
Report the figure in µM without appending any unit label.

## Task Consider the molecule CC(C)([C@H]1C[C@H](NC(=O)c2ccc(OCC(F)(F)F)nc2)C1)S(=O)(=O)c1cccc(C(F)(F)F)c1 [Compound 674] . State its measured IC50.
## Result 9.43

## Task Consider the molecule CC(C)([C@H]1C[C@@H](NS(=O)(=O)c2ccc(C(F)(F)F)nc2)C1)S(=O)(=O)c1cc(F)cc(C(F)(F)F)c1 [Compound 602] . State its measured IC50.
## Result 6.36

## Task Consider the molecule CC(C)([C@H]1C[C@H](NS(=O)(=O)c2ccc(Cl)c(F)c2)C1)S(=O)(=O)c1cccc(C(F)(F)F)c1 [Compound 665] . State its measured IC50.
## Result 2.77

## Task Consider the molecule CC(C)(C[C@H]1C[C@H](NC(=O)c2ccc(C(F)(F)F)nc2)C1)S(=O)(=O)c1cccc(C(F)(F)F)c1 [Compound 723] . State its measured IC50.
## Result 7.86

## Task Consider the molecule CC(C)([C@H]1C[C@@H](NC(=O)c2ccc(Cl)c(F)c2)C1)S(=O)(=O)c1cccc(OC(F)(F)F)c1 [Compound 640] . State its measured IC50.
## Result 1.26

## Task Consider the molecule CC(C)([C@H]1C[C@H](NS(=O)(=O)c2ccc(C(F)(F)F)cc2Cl)C1)S(=O)(=O)c1cccc(C(F)(F)F)c1 [Compound 666] . State its measured IC50.
## Result 1.59

## Task Consider the molecule CC(C)([C@H]1C[C@H](NC(=O)c2ccc(Cl)c(F)c2)C1)S(=O)(=O)c1cccc(OC(F)(F)F)c1 [Compound 633] . State its measured IC50.
## Result 2.3

## Task Consider the molecule CC(C)S(=O)(=O)c1cc(C(F)(F)F)cnc1C(=O)N[C@H]1C[C@@H](C(C)(C)S(=O)(=O)c2cccc(OC(F)(F)F)c2)C1 [Compound 645] . State its measured IC50.
## Result 4.69

## Task Consider the molecule CC(C)([C@H]1C[C@H](NS(=O)(=O)c2ccc(C(F)(F)F)cc2Cl)C1)S(=O)(=O)c1cc(F)cc(C(F)(F)F)c1 [Compound 623] . State its measured IC50.
## Result 5.3

## Task Consider the molecule CC(C)([C@H]1C[C@H](NS(=O)(=O)c2ccc(F)c(C(F)(F)F)c2)C1)S(=O)(=O)c1cc(F)cc(C(F)(F)F)c1 [Compound 608] . State its measured IC50.
## Result 4.92

## Task Consider the molecule CC(C)(C[C@H]1C[C@@H](NC(=O)c2ccc(Cl)cn2)C1)S(=O)(=O)c1cccc(C(F)(F)F)c1 [Compound 733] . State its measured IC50.
## Result 6.16

## Task Consider the molecule O=S(=O)(c1cccc(OC(F)(F)F)c1)[C@H]1C[C@@H](CNc2ccnc(C(F)(F)F)n2)C1 [Compound 650] . State its measured IC50.
## Result 7.29

## Task Consider the molecule CC(C)([C@H]1C[C@H](NC(=O)c2ccnc(C(F)(F)F)n2)C1)S(=O)(=O)c1cccc(OC(F)(F)F)c1 [Compound 635] . State its measured IC50.
## Result 6.96

## Task Consider the molecule O=C(NC[C@H]1C[C@H](S(=O)(=O)c2cc(F)cc(C(F)(F)F)c2)C1)c1ccc(OCC(F)(F)F)nc1 [Compound 706] . State its measured IC50.
## Result 2.87

## Task Consider the molecule CC(C)([C@H]1C[C@H](NS(=O)(=O)c2ccc(F)c(C(F)(F)F)c2)C1)S(=O)(=O)c1cccc(C(F)(F)F)c1 [Compound 667] . State its measured IC50.
## Result 2.5

## Task Consider the molecule CC(C)([C@H]1C[C@@H](NS(=O)(=O)c2ccc(F)c(C(F)(F)F)c2)C1)S(=O)(=O)c1cc(F)cc(C(F)(F)F)c1 [Compound 601] . State its measured IC50.
## Result 3.82

## Task Consider the molecule CC(C)([C@H]1C[C@@H](CNC(=O)c2ccc(OCC(F)(F)F)nc2)C1)S(=O)(=O)c1cccc(C(F)(F)F)c1 [Compound 686] . State its measured IC50.
## Result 1.17

## Task Consider the molecule Cn1nc(C(F)(F)F)cc1NC(=O)[C@H]1C[C@H](C(C)(C)S(=O)(=O)c2cccc(C(F)(F)F)c2)C1 [Compound 769] . State its measured IC50.
## Result 4.72

## Task Consider the molecule O=C(NC[C@H]1C[C@H](S(=O)(=O)c2cc(F)cc(C(F)(F)F)c2)C1)c1ccc(C(F)(F)F)cc1 [Compound 703] . State its measured IC50.
## Result 1.86

## Task Consider the molecule CC(C)([C@H]1C[C@H](Nc2ccnc(C(F)(F)F)n2)C1)S(=O)(=O)c1cc(F)cc(C(F)(F)F)c1 [Compound 649] . State its measured IC50.
## Result 3.13

###

- STUDY_TARGET: Human Cav 2.2 channels (Homo sapiens, UniProt Q00975)
- Sequence (Q00975 whole entry): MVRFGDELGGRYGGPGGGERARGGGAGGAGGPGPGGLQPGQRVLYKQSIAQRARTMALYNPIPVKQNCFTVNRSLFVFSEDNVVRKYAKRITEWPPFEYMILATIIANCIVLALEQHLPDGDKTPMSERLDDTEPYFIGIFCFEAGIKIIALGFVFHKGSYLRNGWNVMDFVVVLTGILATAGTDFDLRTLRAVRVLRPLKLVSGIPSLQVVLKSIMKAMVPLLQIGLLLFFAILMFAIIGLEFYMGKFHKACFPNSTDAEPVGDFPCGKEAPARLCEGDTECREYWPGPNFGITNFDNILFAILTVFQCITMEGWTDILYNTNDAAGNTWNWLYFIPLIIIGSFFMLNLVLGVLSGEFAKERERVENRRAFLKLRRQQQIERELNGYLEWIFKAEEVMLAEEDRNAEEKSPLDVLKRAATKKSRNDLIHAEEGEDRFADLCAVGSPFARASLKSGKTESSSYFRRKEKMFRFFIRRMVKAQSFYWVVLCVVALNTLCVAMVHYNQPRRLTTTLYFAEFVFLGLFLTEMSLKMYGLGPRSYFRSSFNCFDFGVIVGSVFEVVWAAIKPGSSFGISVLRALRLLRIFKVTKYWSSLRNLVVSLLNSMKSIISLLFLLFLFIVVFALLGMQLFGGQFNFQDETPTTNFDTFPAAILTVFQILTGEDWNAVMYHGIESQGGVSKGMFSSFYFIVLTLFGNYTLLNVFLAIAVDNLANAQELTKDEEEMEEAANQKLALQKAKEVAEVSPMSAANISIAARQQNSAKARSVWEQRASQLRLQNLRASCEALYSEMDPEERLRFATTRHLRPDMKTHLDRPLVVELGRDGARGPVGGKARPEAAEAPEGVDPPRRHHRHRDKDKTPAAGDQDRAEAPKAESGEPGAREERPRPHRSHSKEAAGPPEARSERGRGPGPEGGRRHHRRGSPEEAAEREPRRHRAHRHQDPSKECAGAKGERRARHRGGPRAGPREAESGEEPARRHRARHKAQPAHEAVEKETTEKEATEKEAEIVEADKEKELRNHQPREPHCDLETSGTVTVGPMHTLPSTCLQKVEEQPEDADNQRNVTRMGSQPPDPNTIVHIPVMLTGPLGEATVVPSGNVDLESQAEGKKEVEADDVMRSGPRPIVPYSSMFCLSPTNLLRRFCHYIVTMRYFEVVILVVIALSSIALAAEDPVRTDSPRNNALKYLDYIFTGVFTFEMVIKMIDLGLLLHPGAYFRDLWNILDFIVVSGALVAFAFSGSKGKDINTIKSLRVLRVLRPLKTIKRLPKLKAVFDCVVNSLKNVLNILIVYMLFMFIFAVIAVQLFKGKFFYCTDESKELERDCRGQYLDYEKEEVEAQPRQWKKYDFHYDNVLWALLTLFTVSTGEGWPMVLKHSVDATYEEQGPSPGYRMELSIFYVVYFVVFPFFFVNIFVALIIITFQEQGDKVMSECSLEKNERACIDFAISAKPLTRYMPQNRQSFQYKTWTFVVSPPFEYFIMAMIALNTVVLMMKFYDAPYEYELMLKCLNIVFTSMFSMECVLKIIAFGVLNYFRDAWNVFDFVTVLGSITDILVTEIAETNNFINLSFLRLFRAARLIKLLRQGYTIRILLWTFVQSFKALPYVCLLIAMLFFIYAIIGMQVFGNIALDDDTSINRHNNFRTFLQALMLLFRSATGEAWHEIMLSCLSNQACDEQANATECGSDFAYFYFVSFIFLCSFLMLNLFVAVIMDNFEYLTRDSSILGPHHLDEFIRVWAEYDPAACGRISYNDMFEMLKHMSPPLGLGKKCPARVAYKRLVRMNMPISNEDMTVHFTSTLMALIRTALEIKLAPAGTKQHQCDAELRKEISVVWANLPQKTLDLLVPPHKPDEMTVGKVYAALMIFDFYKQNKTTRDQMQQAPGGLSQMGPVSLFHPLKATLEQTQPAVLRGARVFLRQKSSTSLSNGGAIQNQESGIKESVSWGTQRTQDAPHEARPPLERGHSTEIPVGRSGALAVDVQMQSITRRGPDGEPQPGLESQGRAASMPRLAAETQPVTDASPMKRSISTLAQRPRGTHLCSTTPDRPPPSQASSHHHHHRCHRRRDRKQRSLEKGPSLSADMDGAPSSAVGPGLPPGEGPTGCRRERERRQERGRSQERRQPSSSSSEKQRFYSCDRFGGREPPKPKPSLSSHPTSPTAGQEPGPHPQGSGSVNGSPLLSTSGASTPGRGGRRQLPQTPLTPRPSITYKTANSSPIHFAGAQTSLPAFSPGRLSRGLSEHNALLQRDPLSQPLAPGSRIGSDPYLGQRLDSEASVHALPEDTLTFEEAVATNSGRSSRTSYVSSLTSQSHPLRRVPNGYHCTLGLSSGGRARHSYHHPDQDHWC
- Sequence (P54289 25-1103 partner): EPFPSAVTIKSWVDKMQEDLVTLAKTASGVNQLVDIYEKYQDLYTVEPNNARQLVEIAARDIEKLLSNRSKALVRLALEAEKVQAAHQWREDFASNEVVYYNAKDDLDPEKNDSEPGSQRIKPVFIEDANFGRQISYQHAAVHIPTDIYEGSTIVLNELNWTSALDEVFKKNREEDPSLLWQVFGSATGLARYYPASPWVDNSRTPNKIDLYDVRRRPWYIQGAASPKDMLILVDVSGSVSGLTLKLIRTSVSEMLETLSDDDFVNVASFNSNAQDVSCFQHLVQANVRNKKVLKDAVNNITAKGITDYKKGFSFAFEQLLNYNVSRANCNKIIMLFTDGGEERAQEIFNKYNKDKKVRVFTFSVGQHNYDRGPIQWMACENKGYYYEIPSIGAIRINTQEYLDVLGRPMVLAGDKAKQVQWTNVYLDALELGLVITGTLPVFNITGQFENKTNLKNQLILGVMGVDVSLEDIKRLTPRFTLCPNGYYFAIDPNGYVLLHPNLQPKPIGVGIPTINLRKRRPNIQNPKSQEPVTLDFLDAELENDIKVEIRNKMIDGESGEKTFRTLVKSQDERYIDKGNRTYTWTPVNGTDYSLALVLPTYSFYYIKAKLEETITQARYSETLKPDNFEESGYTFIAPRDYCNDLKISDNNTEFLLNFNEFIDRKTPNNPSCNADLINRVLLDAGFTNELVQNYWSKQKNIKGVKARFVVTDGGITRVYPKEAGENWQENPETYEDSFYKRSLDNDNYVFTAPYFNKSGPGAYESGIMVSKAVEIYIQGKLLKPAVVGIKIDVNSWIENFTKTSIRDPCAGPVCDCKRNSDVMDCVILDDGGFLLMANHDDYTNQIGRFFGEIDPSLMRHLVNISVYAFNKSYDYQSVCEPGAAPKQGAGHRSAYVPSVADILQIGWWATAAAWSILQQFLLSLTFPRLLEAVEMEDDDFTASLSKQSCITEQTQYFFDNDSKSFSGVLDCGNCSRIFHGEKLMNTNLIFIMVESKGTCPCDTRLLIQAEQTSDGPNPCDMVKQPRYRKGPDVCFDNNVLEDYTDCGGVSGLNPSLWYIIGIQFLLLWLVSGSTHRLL
- Sequence (P54284 whole entry partner): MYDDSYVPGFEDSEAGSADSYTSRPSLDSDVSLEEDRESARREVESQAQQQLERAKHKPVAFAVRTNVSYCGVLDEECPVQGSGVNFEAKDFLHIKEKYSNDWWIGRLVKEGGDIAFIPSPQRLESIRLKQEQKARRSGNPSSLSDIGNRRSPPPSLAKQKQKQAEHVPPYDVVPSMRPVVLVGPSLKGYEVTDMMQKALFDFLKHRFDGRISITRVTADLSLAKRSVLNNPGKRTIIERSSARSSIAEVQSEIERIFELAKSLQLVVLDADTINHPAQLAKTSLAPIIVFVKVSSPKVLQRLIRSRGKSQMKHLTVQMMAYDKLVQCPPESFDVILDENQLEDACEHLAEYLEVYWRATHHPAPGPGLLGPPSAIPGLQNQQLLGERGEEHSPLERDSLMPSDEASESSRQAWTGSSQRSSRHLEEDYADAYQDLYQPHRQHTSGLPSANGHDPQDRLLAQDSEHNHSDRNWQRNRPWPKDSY
- PROCEDURE_TEXT: Fluorescent assay for CaV2.2 channels using potassium depolarization (VIPR/FLIPR)
- Format: cell-based
- EXPERIMENTAL_CONTEXT: FLIPR data; ratio closed/inactivated IC50
ASSAY_ENDPOINT: CAv2.2 IC50 Ratio closed/inact.
Lab note: record just the number, no unit beside it.

## Task Consider the compound CC(C)([C@H]1C[C@@H](NC(=O)c2ccc(C(F)(F)F)cn2)C1)S(=O)(=O)c1cccc(C(F)(F)F)c1 . State its measured CAv2.2 IC50 Ratio closed/inact..
## Result 11.5

## Task Consider the compound CC(C)([C@H]1C[C@@H](CNc2ccnc(C(F)(F)F)n2)C1)S(=O)(=O)c1cccc(C(F)(F)F)c1 . State its measured CAv2.2 IC50 Ratio closed/inact..
## Result 7.6

## Task Consider the compound CC(C)([C@H]1C[C@@H](NC(=O)c2ccnc(C(F)(F)F)n2)C1)S(=O)(=O)c1cc(F)cc(C(F)(F)F)c1 . State its measured CAv2.2 IC50 Ratio closed/inact..
## Result 6.2

## Task Consider the compound CC(C)(C1CC(CNC(=O)c2ccc(Cl)c(F)c2)C1)S(=O)(=O)c1cccc(C(F)(F)F)c1 (stereo not shown) . State its measured CAv2.2 IC50 Ratio closed/inact..
## Result 8.9

###

- STUDY_TARGET: Human Cav 2.2 channels (Homo sapiens)
- PROCEDURE_TEXT: Fluorescent assay for CaV2.2 channels using potassium depolarization (VIPR/FLIPR)
- Assay type: cell-based
- EXPERIMENTAL_CONTEXT: FLIPR data; inactivated state; read-out: CAv2.2 IC50 Inact.
pIC50: −log10 of the molar value.
Label 1 when pIC50 is at or above 6; anything below gets -1.

## Task Answer whether pIC50 of NC1(CC(=O)NC[C@H]2C[C@H](S(=O)(=O)c3cccc(Cl)c3)C2)CCCCC1 [Compound 776] is greater than or equal to 6.
## Result -1

## Task Answer whether pIC50 of O=C(NC[C@H]1C[C@H](S(=O)(=O)c2cccc(Cl)c2)C1)c1cnc(C(F)(F)F)nc1 [Compound 773] is greater than or equal to 6.
## Result -1

## Task Answer whether pIC50 of CC(C)([C@H]1C[C@H](C(=O)Nc2ccc(C(F)(F)F)nc2)C1)S(=O)(=O)c1cccc(C(F)(F)F)c1 [Compound 760] is greater than or equal to 6.
## Result 1

## Task Answer whether pIC50 of CC(C)([C@H]1C[C@@H](NC(=O)c2ccc(C(F)(F)F)cc2)C1)S(=O)(=O)c1cccc(C(F)(F)F)c1 [Compound 581] is greater than or equal to 6.
## Result 1

###

What IC50 was measured for each of the following?
- STUDY_TARGET: human α1G T-type channels (Homo sapiens, UniProt O43497)
- PROCEDURE_TEXT: T-type calcium channel block, whole cell patch clamp, α1G
- EXPERIMENTAL_CONTEXT: HEK cells stably expressing human α1G; mainly non-inactivated protocol; values above 10,000 nM represented as 10000

## Task Consider the molecule Cn1nc(C(F)(F)F)cc1C(=O)NCCC(C)(C)S(=O)(=O)c1cc(F)cc(C(F)(F)F)c1 . State its measured IC50.
## Result 0.7 µM

## Task Consider the molecule CN(CCc1ccc(F)cc1)C(=O)C(C)(C)S(=O)(=O)c1cccc(C(F)(F)F)c1 . State its measured IC50.
## Result 0.57 µM

## Task Consider the molecule CC(C)(C)NC(=O)CNC1CCC(S(=O)(=O)c2cccc(C(F)(F)F)c2)CC1 (stereo not shown) . State its measured IC50.
## Result > 10 µM

## Task Consider the molecule CN(C(=O)c1cn2cc(C(F)(F)F)ccc2n1)[C@H]1CC[C@@](F)(S(=O)(=O)c2cc(F)cc(C(F)(F)F)c2)CC1 . State its measured IC50.
## Result > 10 µM

## Task Consider the molecule CC(C)(CCNC(=O)c1ccc(C(F)(F)F)cc1S(C)(=O)=O)S(=O)(=O)c1cccc(C(F)(F)F)c1 . State its measured IC50.
## Result 0.43 µM

## Task Consider the molecule CC1(NC(=O)CN[C@H]2C[C@H](CS(=O)(=O)c3cccc(C(F)(F)F)c3)C2)CCC1 . State its measured IC50.
## Result > 10 µM

## Task Consider the molecule CC(C)(C(=O)NCCc1ccc(Cl)c(Cl)c1)S(=O)(=O)c1cccc(C(F)(F)F)c1 . State its measured IC50.
## Result 0.26 µM

meta.source: patent US20120245137A1
